MEASURED TARGET: T1, recombinant human heparanase (Homo sapiens, UniProt Q9Y251)
T1 construct: Heparanase 8 and 50 kDa sub-units were cloned into pacGP67 as Sma 1-EcoR1 fragments; made in house; host or cells: Hi5 insect cells, baculovirus (pFastBac Dual)
T1 sequence (Q9Y251 158-543 limits assumed): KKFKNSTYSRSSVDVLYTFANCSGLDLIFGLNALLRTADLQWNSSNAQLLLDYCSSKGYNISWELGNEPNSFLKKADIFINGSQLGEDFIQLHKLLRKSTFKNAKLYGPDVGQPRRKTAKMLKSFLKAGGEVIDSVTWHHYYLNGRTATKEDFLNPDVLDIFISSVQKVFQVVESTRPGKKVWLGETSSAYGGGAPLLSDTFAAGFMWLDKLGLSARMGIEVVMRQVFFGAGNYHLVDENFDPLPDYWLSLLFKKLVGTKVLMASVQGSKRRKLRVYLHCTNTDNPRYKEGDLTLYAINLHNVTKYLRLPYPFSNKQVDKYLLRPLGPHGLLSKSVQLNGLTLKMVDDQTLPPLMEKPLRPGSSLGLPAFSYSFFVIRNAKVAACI
T1 sequence (Q9Y251 36-109 limits assumed): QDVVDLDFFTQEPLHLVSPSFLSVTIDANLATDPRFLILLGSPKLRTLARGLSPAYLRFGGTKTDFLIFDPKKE
EXPERIMENTAL PROTOCOL: ELISA binding to directly coated recombinant human heparanase
Method: Titres of antibodies from Campaigns 1 and 2 were determined in an ELISA. […] Directly coated heparanase was detected in three separate plates by mouse (InSight Cat. INS-26-1-0000), goat (Santa Cruz, Cat. sc26136) or rabbit (Raybiotech, Cat. IP-14-155) anti-heparanase antibodies, and quantified using appropriate secondary antibodies. Antibody captured heparanase was detected using mouse anti-heparanase (Insight Cat. INS-26-1-0000). […]
This listing pairs molecules with measured Binding to direct coated heparanase.
Give the value in OD units but do not write OD units after it.

Known Binding to direct coated heparanase results, listed for orientation:
MOLECULE: 14H12.3: human anti-heparanase monoclonal antibody, G2λ; VH SEQ ID NO 26, VL SEQ ID NO 28 (antibody, listed as Homo Sapiens, V domains shown) VH: QVQLVESGGGVVQPGRSLRLSCAASGFTFSSYGMHWVRQAPGKGLEWVAVIWYDGSNKDYADSVKGRFTISRDNSKNTLYLQMNSLRAEDTAVYYCAREGSTSWTDYYGMDVWGQGTTVTVSS VL: SYELTQPPSVSVSPGQTARITCSGDALPKRYAYWYQQKSGQALVLVIYEDSKRPSGIPERFSGSSSGTMATLTISGAQVEDEADYYCYSIDSSGNHGVFGGGTKLTVL
Binding to direct coated heparanase, OD units: 3.69
--
MOLECULE: 15A11.1: fully human anti-heparanase monoclonal antibody, G2κ; VH SEQ ID NO 10, VL SEQ ID NO 12; ATCC PTA-9490 (antibody, listed as Homo Sapiens, V domains shown, fully human anti-heparanase monoclonal antibody, G2κ; ATCC PTA-9490) VH: QVQLVQSGAEVKKPGASVKVSCKVSGDTLTELSMHWVRQTPGKGLEWMGGFDPEDGETIYAQKFQGRVTMTGDTSTDTAYMELSSLRSEDTAVYYCATEGDYGDSEEYYYYYGMDVWGQGTTVTVSS VL: DIQMTQSPSSLSASVGDRVTITCRASQGISNYLAWYQQKPGKVPKLLIYAASTLQSGVPSRFSGSGSGTDFTLTISSLQPEDVATYYCQKYNRAPFTFGPGTKVDIK
Binding to direct coated heparanase, OD units: 0.07
--
MOLECULE: 15A1.2: fully human anti-heparanase monoclonal antibody, G2κ; VH SEQ ID NO 6, VL SEQ ID NO 8; ATCC PTA-9491 (antibody, listed as Homo Sapiens, V domains shown, fully human anti-heparanase monoclonal antibody, G2κ; ATCC PTA-9491) VH: QVQLVQSGAEVKKPGASVKVSCKVSGYTLTELSMHWVRQAPGKGLEWMGGFDPEDGETIFAQKFQGRVTMTEDTSTDTAYMELSSLRSEDTAVYYCATGLRFLEWFLWGWDVWGQGTTVTVSS VL: DIQMTQSPSSVSASVGDRVTITCRASQGISNWLAWYQQTPGKAPQLLIYGASSLQSGVPSRFSGSGSGTDFTLTISSLQPEDFATYYCQQADSFPPTFGQGTKVEIK
Binding to direct coated heparanase, OD units: 0.08
--
MOLECULE: 10E9.1: fully human anti-heparanase monoclonal antibody, G2κ; VH SEQ ID NO 2, VL SEQ ID NO 4; ATCC PTA-9489 (antibody, listed as Homo Sapiens, V domains shown, fully human anti-heparanase monoclonal antibody, G2κ; ATCC PTA-9489) VH: QVQLVQSGAEVKKPGASVKVSCKVSGYSLTELSIHWVRQAPGKGLEWMGGFDPEDGEIIFAQKFQGRVTLTEDISLDTAYMEVSSLRSEDTAVYYCATEGHDSGDYVGYYYYGLDVWGQGTTVTVSS VL: DIQMTQSPSSLSASVGDRVTITCRASQDIRNFLAWYQQKPGKLPKLLIYAASTLQSGVPSRFSGSGSGTDFTLTISSLQPEDVASYYCQSHNSVPFTFGPGTKVDIR
Binding to direct coated heparanase, OD units: 0.2

Moving on to the next molecule.
# return recorded Binding to direct coated heparanase for entry 16G1.1: human anti-heparanase monoclonal antibody, G4κ; VH SEQ ID NO 14, VL SEQ ID NO 16 (antibody, listed as Homo Sapiens, V domains shown) VH: QVQLVESGGGVVQPGRSLRLSCAASGFTFSSYGMHWVRQAPGKGLEWVAVIWYDGSNKYYADSVKGRFTISRDNSKNTLNLQMNSLRAEDTAVYYCGRDPGTYHYYYHGMDVWGQGTTVTVSS VL: YIVMTQSPLSLPVTPGEPASISCRSSQSLLHSNGYNFLDWYLQKPGQSPQLLIYLGSNRASGVPDRFSGSGSGTDFTLKINRVEAEDVGVYYCMQALQTPITFGQGTRLEIK
3.63

From: patent US20100233154A1
